Where these numbers come from: patent US8716242B2

- assay_comment: in vivo
- Parameters: species or system male CD-1 mice
- experimental_conditions: male, CD-1, mouse, sc, 5 mg/kg
Bridge positions count the residues as written; N and C are the ends. Square brackets hold non-standard residues; d marks the D form. Peptide text beside a SMILES is read from it. * marks the point of attachment. Lauroyl = CCCCCCCCCCCC(=O)*; Dab = NCC[C@H](N)C(=O)O
measured_parameter: Cmax (ng/mL)

| molecule | value_unit | recorded_number |
| --- | --- | --- |
| CCCCCCCCCCCC(=O)NCCCC[C@@H]1NC(=O)[C@H](Cc2ccc(O)cc2)NC(=O)[C@@H]2CSSC[C@H](NC(=O)[C@H](C)NC(=O)[C@H](Cc3c[nH]cn3)NC(=O)[C@H](Cc3ccc(O)cc3)NC(=O)[C@@H]3CCCN3C(=O)[C@H]3CCCN3C(=O)[C@H](CCCCN)NC1=O)C(=O)N[C@@H](CCCNC(=N)N)C(=O)N[C@@H](C)C(=O)N1CCC[C@@H]1C(=O)N[C@@H](CCN)C(=O)N[C@@H](CCCNC(=N)N)C(=O)N[C@@H](Cc1ccc(O)cc1)C(=O)N2 [Ex. 17] (cyclo(YHACRA[dP][Dab]RYCYK(Lauroyl)K[dP]P); disulfide 4-11) | ng/mL | 1750 |

====

- assay_comment: in vivo
- Design: species or system male CD-1 mice
- experimental_conditions: male, CD-1, mouse, sc, 5 mg/kg
Bridge positions count the residues as written; N and C are the ends. Square brackets hold non-standard residues; d marks the D form. Peptide text beside a SMILES is read from it. * marks the point of attachment. Lauroyl = CCCCCCCCCCCC(=O)*; Dab = NCC[C@H](N)C(=O)O
measured_parameter: level at 2 h (ng/mL)

| molecule | recorded_number |
| --- | --- |
| CCCCCCCCCCCC(=O)NCCCC[C@@H]1NC(=O)[C@H](Cc2ccc(O)cc2)NC(=O)[C@@H]2CSSC[C@H](NC(=O)[C@H](C)NC(=O)[C@H](Cc3c[nH]cn3)NC(=O)[C@H](Cc3ccc(O)cc3)NC(=O)[C@@H]3CCCN3C(=O)[C@H]3CCCN3C(=O)[C@H](CCCCN)NC1=O)C(=O)N[C@@H](CCCNC(=N)N)C(=O)N[C@@H](C)C(=O)N1CCC[C@@H]1C(=O)N[C@@H](CCN)C(=O)N[C@@H](CCCNC(=N)N)C(=O)N[C@@H](Cc1ccc(O)cc1)C(=O)N2 [Ex. 17] (cyclo(YHACRA[dP][Dab]RYCYK(Lauroyl)K[dP]P); disulfide 4-11) | 1750 |

====

Measured GI50, listed per entry for reference.
- assay_comment: Cytotoxicity, MTT reduction assay, COS-7 cells
- Assay type: cell-based
- experimental_conditions: COS-7 cells, 48 h, 12.5-50 μM
Bridge positions count the residues as written; N and C are the ends. Square brackets hold non-standard residues; d marks the D form. Peptide text beside a SMILES is read from it. * marks the point of attachment. Gly(decyl) = CCCCCCCCCC[C@H](N)C(=O)O; Octanoyl = CCCCCCCC(=O)*; Dab = NCC[C@H](N)C(=O)O
measured_parameter: GI50

| compound | measured_parameter | result |
| --- | --- | --- |
| CCCCCCCCCC[C@@H]1NC(=O)[C@H](Cc2ccc(O)cc2)NC(=O)[C@@H]2CSSC[C@H](NC(=O)[C@H](Cc3ccc(O)cc3)NC(=O)[C@H](Cc3c[nH]cn3)NC(=O)[C@H](Cc3ccc(O)cc3)NC(=O)[C@@H]3CCCN3C(=O)[C@H]3CCCN3C(=O)[C@H](CCCCN)NC1=O)C(=O)N[C@@H](CCCNC(=N)N)C(=O)N[C@@H](C)C(=O)N1CCC[C@@H]1C(=O)N[C@@H](CCN)C(=O)N[C@@H](CCCNC(=N)N)C(=O)N[C@@H](Cc1ccc(O)cc1)C(=O)N2 [Ex. 8] (cyclo(YHYCRA[dP][Dab]RYCY[Gly(decyl)]K[dP]P); disulfide 4-11) | GI50 | > 44 µM |
| CCCCCCCC(=O)NCCCC[C@@H]1NC(=O)[C@H](CCC(N)=O)NC(=O)[C@H](Cc2ccc(O)cc2)NC(=O)[C@@H]2CSSC[C@H](NC(=O)[C@H](Cc3ccc(O)cc3)NC(=O)[C@H](CCCNC(=N)N)NC(=O)[C@H](Cc3ccc(O)cc3)NC(=O)[C@@H]3CCCN3C(=O)[C@H]3CCCN3C1=O)C(=O)N[C@@H](CO)C(=O)N[C@@H](C)C(=O)N1CCC[C@@H]1C(=O)N[C@@H](CCN)C(=O)N[C@@H](CCCNC(=N)N)C(=O)N[C@@H](Cc1ccc(O)cc1)C(=O)N2 [Ex. 32] (cyclo(YRYCSA[dP][Dab]RYCYQK(Octanoyl)[dP]P); disulfide 4-11) | GI50 | > 50 µM |

====

- assay_comment: Plasma stability in human plasma
- Type: in vitro ADME
- experimental_conditions: human plasma, 37° C., 1440 min; read-out: human pl. cpd left at 1440 min
Numbered stars: 1 amine (or outer) side, 2 acyl side, 3 side chain; on linkers, the order of the positions; unused ones are H or OH. Bridge positions count the residues as written; N and C are the ends. Square brackets hold non-standard residues; d marks the D form. Peptide text beside a SMILES is read from it. * marks the point of attachment. X2 = CCCCCCCCCC[C@@H](N[*:1])C(=O)[*:2]; Lauroyl = CCCCCCCCCCCC(=O)*; Decanoyl = CCCCCCCCCC(=O)*; Octanoyl = CCCCCCCC(=O)*; Dab = NCC[C@H](N)C(=O)O; Dodecyl = CCCCCCCCCCCC*

| compound | remaining at 24 h, 10 μM (%) |
| --- | --- |
| CCCCCCCCCCCC(=O)NCC[C@@H]1NC(=O)[C@H](Cc2ccc(O)cc2)NC(=O)[C@@H]2CSSC[C@H](NC(=O)[C@H](C)NC(=O)[C@H](Cc3c[nH]cn3)NC(=O)[C@H](Cc3ccc(O)cc3)NC(=O)[C@@H]3CCCN3C(=O)[C@H]3CCCN3C(=O)[C@H](CCCCN)NC1=O)C(=O)N[C@@H](CCCNC(=N)N)C(=O)N[C@@H](C)C(=O)N1CCC[C@@H]1C(=O)N[C@@H](CCN)C(=O)N[C@@H](CCCNC(=N)N)C(=O)N[C@@H](Cc1ccc(O)cc1)C(=O)N2 [Ex. 11] (cyclo(YHACRA[dP][Dab]RYCY[Dab](Lauroyl)K[dP]P); disulfide 4-11) | 82 |
| CCCCCCCC(=O)NCCCC[C@@H]1NC(=O)[C@H](CCC(N)=O)NC(=O)[C@H](Cc2ccc(O)cc2)NC(=O)[C@@H]2CSSC[C@H](NC(=O)[C@H](Cc3ccc(O)cc3)NC(=O)[C@H](CCCNC(=N)N)NC(=O)[C@H](Cc3ccc(O)cc3)NC(=O)[C@@H]3CCCN3C(=O)[C@H]3CCCN3C1=O)C(=O)N[C@@H](CO)C(=O)N[C@@H](C)C(=O)N1CCC[C@@H]1C(=O)N[C@@H](CCN)C(=O)N[C@@H](CCCNC(=N)N)C(=O)N[C@@H](Cc1ccc(O)cc1)C(=O)N2 [Ex. 32] (cyclo(YRYCSA[dP][Dab]RYCYQK(Octanoyl)[dP]P); disulfide 4-11) | 39 |
| CCCCCCCCCCCC(=O)NCC[C@@H]1NC(=O)[C@H]2CCCN2C(=O)[C@H](C)NC(=O)[C@H](CCCNC(=N)N)NC(=O)[C@@H]2CSSC[C@H](NC(=O)[C@H](Cc3ccc(O)cc3)NC(=O)[C@H](CCCNC(=N)N)NC1=O)C(=O)N[C@@H](Cc1ccc(O)cc1)C(=O)N[C@@H](CCC(N)=O)C(=O)N[C@@H](CCCCN)C(=O)N1CCC[C@@H]1C(=O)N1CCC[C@H]1C(=O)N[C@@H](Cc1ccc(O)cc1)C(=O)N[C@@H](Cc1c[nH]cn1)C(=O)N[C@@H](C)C(=O)N2 [Ex. 5] (cyclo(YHACRA[dP][Dab](Lauroyl)RYCYQK[dP]P); disulfide 4-11) | 100 |
| CCCCCCCCCCCC(=O)NCCCC[C@@H]1NC(=O)[C@H](Cc2ccc(O)cc2)NC(=O)[C@@H]2CSSC[C@H](NC(=O)[C@H](C)NC(=O)[C@H](Cc3c[nH]cn3)NC(=O)[C@H](Cc3ccc(O)cc3)NC(=O)[C@@H]3CCCN3C(=O)[C@H]3CCCN3C(=O)[C@H](CCCCN)NC1=O)C(=O)N[C@@H](CCCNC(=N)N)C(=O)N[C@@H](C)C(=O)N1CCC[C@@H]1C(=O)N[C@@H](CCN)C(=O)N[C@@H](CCCNC(=N)N)C(=O)N[C@@H](Cc1ccc(O)cc1)C(=O)N2 [Ex. 17] (cyclo(YHACRA[dP][Dab]RYCYK(Lauroyl)K[dP]P); disulfide 4-11) | 65 |
| CCCCCCCCCCCCOc1ccc(C[C@@H]2NC(=O)[C@H](CCCNC(=N)N)NC(=O)[C@H](CCN)NC(=O)[C@H]3CCCN3C(=O)[C@H](C)NC(=O)[C@H](CCCNC(=N)N)NC(=O)[C@@H]3CSSC[C@H](NC2=O)C(=O)N[C@@H](Cc2ccc(O)cc2)C(=O)N[C@@H](CCC(N)=O)C(=O)N[C@@H](CCCCN)C(=O)N2CCC[C@@H]2C(=O)N2CCC[C@H]2C(=O)N[C@@H](Cc2ccc(O)cc2)C(=O)N[C@@H](Cc2c[nH]cn2)C(=O)N[C@@H](C)C(=O)N3)cc1 [Ex. 7] (cyclo(YHACRA[dP][Dab]RY(Dodecyl)CYQK[dP]P); disulfide 4-11) | 67 |
| CCCCCCCCCC(=O)NCCCC[C@@H]1NC(=O)[C@H](Cc2ccc(O)cc2)NC(=O)[C@@H]2CSSC[C@H](NC(=O)[C@H]([C@@H](C)O)NC(=O)[C@H](Cc3c[nH]cn3)NC(=O)[C@H](Cc3ccc(O)cc3)NC(=O)[C@@H]3CCCN3C(=O)[C@H]3CCCN3C(=O)[C@H](CCCCN)NC1=O)C(=O)N[C@@H](CCCNC(=N)N)C(=O)NCC(=O)N1CCC[C@@H]1C(=O)N[C@@H](CCN)C(=O)N[C@@H](CCCNC(=N)N)C(=O)N[C@@H](Cc1ccc(O)cc1)C(=O)N2 [Ex. 15] (cyclo(YHTCRG[dP][Dab]RYCYK(Decanoyl)K[dP]P); disulfide 4-11) | 73 |
| CCCCCCCC(=O)NCCCC[C@@H]1NC(=O)[C@H](Cc2ccc(O)cc2)NC(=O)[C@@H]2CSSC[C@H](NC(=O)[C@H](Cc3ccc(O)cc3)NC(=O)[C@H](Cc3c[nH]cn3)NC(=O)[C@H](Cc3ccc(O)cc3)NC(=O)[C@@H]3CCCN3C(=O)[C@H]3CCCN3C(=O)[C@H](CCCCN)NC1=O)C(=O)N[C@@H](CO)C(=O)N[C@@H](C)C(=O)N1CCC[C@@H]1C(=O)N[C@@H](CCN)C(=O)N[C@@H](CCCNC(=N)N)C(=O)N[C@@H](Cc1ccc(O)cc1)C(=O)N2 [Ex. 12] (cyclo(YHYCSA[dP][Dab]RYCYK(Octanoyl)K[dP]P); disulfide 4-11) | 88 |
| CCCCCCCC(=O)NCCCC[C@@H]1NC(=O)[C@H](Cc2c[nH]cn2)NC(=O)[C@H](Cc2ccc(O)cc2)NC(=O)[C@@H]2CCCN2C(=O)[C@H]2CCCN2C(=O)[C@H](CCCCN)NC(=O)[C@H](CCC(N)=O)NC(=O)[C@H](Cc2ccc(O)cc2)NC(=O)[C@@H]2CSSC[C@H](NC1=O)C(=O)N[C@@H](CO)C(=O)N[C@@H](C)C(=O)N1CCC[C@@H]1C(=O)N[C@@H](CCN)C(=O)N[C@@H](CCCNC(=N)N)C(=O)N[C@@H](Cc1ccc(O)cc1)C(=O)N2 [Ex. 3] (cyclo(YHK(Octanoyl)CSA[dP][Dab]RYCYQK[dP]P); disulfide 4-11) | 86 |
| CCCCCCCCCC[C@H]1NC(=O)[C@H](Cc2ccc(O)cc2)NC(=O)[C@@H]2CSSC[C@H](NC(=O)[C@H](C)NC(=O)[C@H](Cc3c[nH]cn3)NC(=O)[C@H](Cc3ccc(O)cc3)NC(=O)[C@@H]3CCCN3C(=O)[C@H]3CCCN3C(=O)[C@H](CCCCN)NC1=O)C(=O)N[C@@H](CCCNC(=N)N)C(=O)N[C@@H](C)C(=O)N1CCC[C@@H]1C(=O)N[C@@H](CCN)C(=O)N[C@@H](CCCNC(=N)N)C(=O)N[C@@H](Cc1ccc(O)cc1)C(=O)N2 [Ex. 9] (cyclo(YHACRA[dP][Dab]RYCY[X2]K[dP]P); disulfide 4-11) | 100 |
